- Tested on: MCF7
- assay-notes: Induction of apoptosis in human MCF7 cells assessed as cell death at 10 uM after 4 hrs by TUNEL analysis (reference value: 5.85 +/- 5.21%)
- Type: functional
measured-parameter: Activity (%)

>>> result_value("CSc1ccc(CNc2nc(SC)nc3ncccc23)cc1")
5.26
>>> result_value("CCCCC[Se]c1nc(NCc2ccccc2)c2ccccc2n1")
8.11
>>> result_value("[SeH]c1nc([SeH])c2ccccc2n1")
6.01
>>> result_value("CC[C@@]1(O)C(=O)OCc2c1cc1n(c2=O)Cc2cc3ccccc3nc2-1 [CAMPTOTHECIN]")
6.71

###

- assay-notes: Cytotoxicity against human HTB-54 cells after 72 hrs by MTT assay
- Assay type: functional
- condition-label: HTB-54, 72 h, read-out: LC50 (the source's name)
Measured CC50, listed per entry for reference.
measured-parameter: CC50

>>> result_value("CCCCC[Se]c1nc(NCc2ccccc2)c2ccccc2n1")
"> 100 µM"
>>> result_value("CSc1nc(NCc2ccccc2)c2cccnc2n1")
"> 100 µM"
>>> result_value("COc1ccc(CNc2nc(S)nc3ccccc23)cc1")
"77.6 µM"
>>> result_value("Nc1nc([SeH])nc2ncccc12")
"> 100 µM"
>>> result_value("CSc1nc(NCCCCc2ccccc2)c2ccccc2n1")
"> 100 µM"
>>> result_value("C[Se]c1nc(N)c2ccccc2n1")
"> 100 µM"
>>> result_value("CSc1nc(NCCCCCO)c2cccnc2n1")
"> 100 µM"
>>> result_value("CSc1nc(NCc2ccccc2)c2ccccc2n1")
"> 100 µM"
>>> result_value("C[Se]c1nc(NCc2ccccc2)c2ccccc2n1")
"> 100 µM"
>>> result_value("CCCCC[Se]c1nc(NCc2ccc(SC)cc2)c2ccccc2n1")
"> 100 µM"
>>> result_value("Nc1nc([SeH])nc2ccccc12")
"> 100 µM"
>>> result_value("CSc1ccc(CNc2nc([Se]C)nc3ccccc23)cc1")
"> 100 µM"
>>> result_value("CCCCC[Se]c1nc([Se]CCCCC)c2cccnc2n1")
"> 100 µM"
>>> result_value("CCCCC[Se]c1nc(N)c2cccnc2n1")
"98.5 µM"
>>> result_value("[SeH]c1nc([SeH])c2cccnc2n1")
"68.4 µM"
>>> result_value("[SeH]c1nc(NCc2ccccc2)c2cccnc2n1")
"> 100 µM"
>>> result_value("CCCCCSc1nc(O)c2ccccc2n1")
"> 100 µM"
>>> result_value("C[Se]c1nc([Se]C)c2ccccc2n1")
"> 100 µM"

###

Measured LC50 of individual entries
- System: MCF7
- assay-notes: Cytotoxicity against human MCF7 cells after 72 hrs by MTT assay
- Format: functional
- condition-label: MCF7, 72 h
measured-parameter: LC50

>>> result_value("CSc1ccc(CNc2nc([SeH])nc3ccccc23)cc1")
"> 100 µM"
>>> result_value("COc1ccc(CNc2nc([Se]C)nc3ccccc23)cc1")
"> 100 µM"
>>> result_value("CSc1nc(NCCCCCO)c2cccnc2n1")
"> 100 µM"
>>> result_value("[Se]=C=NCc1ccccc1 [BENZYLISOSELENOCYANATE]")
"95.5 µM"
>>> result_value("Nc1nc([SeH])nc2ccccc12")
"> 100 µM"
>>> result_value("CCCCC[Se]c1nc([Se]CCCCC)c2ccccc2n1")
"> 100 µM"
>>> result_value("CSc1nc(Nc2ccccc2)c2ccccc2n1")
"> 100 µM"
>>> result_value("CSc1ccc(CNc2nc(SC)nc3ncccc23)cc1")
"9.13 µM"
>>> result_value("C[Se]c1nc(N)c2cccnc2n1")
"> 100 µM"
>>> result_value("CCCCCSc1nc(O)c2ccccc2n1")
"> 100 µM"
>>> result_value("CSc1nc(NCCCc2ccccc2)c2ccccc2n1")
"> 100 µM"
>>> result_value("CSc1nc(NCCc2ccccc2)c2ccccc2n1")
"> 100 µM"
>>> result_value("Nc1nc([SeH])nc2ncccc12")
"> 100 µM"
>>> result_value("CSc1nc(NCc2ccccc2)c2ccccc2n1")
"> 100 µM"
>>> result_value("CCCCCSc1nc(NCc2ccc([Se]C)cc2)c2ccccc2n1")
"> 100 µM"
>>> result_value("CSc1nc(NCc2ccc([Se]C)cc2)c2ccccc2n1")
"> 100 µM"
>>> result_value("CSc1nc(NCCCCc2ccccc2)c2ccccc2n1")
"95.9 µM"
>>> result_value("CCCCC[Se]c1nc(NCc2ccccc2)c2ccccc2n1")
"99.4 µM"
